System: wheat
assay.notes: Foliage treatment test for upland field (Test Example 3): phytotoxicity to wheat; further: key: 0: normal growth; 1: little damaged; 2: low damaged; 3: medium damaged; 4: serious damaged; 5: complete killed
Type: in vivo
experimental.conditions: dose 2.5 g ai/a; foliage treatment at 1.0-2.0 leaf stage of southern crabgrass; examined after 3 weeks
readout.kind: Phytotoxicity wheat

smiles.str | readout.kind | number
CCOCC(=Cc1cccc(C(F)(F)F)c1)c1nc2cc(C(F)(F)F)ccc2o1 | Phytotoxicity wheat | 1
CSCC(=Cc1cccc(C(F)(F)F)c1)c1nc2cc(C(F)(F)F)ccc2o1 | Phytotoxicity wheat | 0
COCC(=Cc1cccc(C(F)(F)F)c1)c1nc2cc(OC(F)(F)F)ccc2o1 | Phytotoxicity wheat | 0
COCC(=Cc1cccc(C(F)(F)F)c1)c1nc2cc(C#N)c(F)cc2o1 | Phytotoxicity wheat | 0
COC/C(=C\c1cccc(C(F)(F)F)c1)c1nc2cc(Cl)ccc2o1 | Phytotoxicity wheat | 1
COCC(=Cc1ccc(Cl)c(C(F)(F)F)c1)c1nc2cc(Cl)ccc2o1 | Phytotoxicity wheat | 1
